# Test system: BT-549 breast
# protocol notes: NCI-60 one-dose screen, 48 h (100 = growth as untreated, 0 = no growth, -100 = all killed)
# measurement context: 10 µM
# Procedure: Growth inhibition of the BT-549 human tumor cell line is measured as a screen for anti-cancer activity. Cells are grown in 96 well plates and exposed to the test compound for 48 hours. Compounds are tested at a single concentration, which is 10^-5 M for most compounds. The reported endpoint is percent growth (GI% or GIPRCNT), where numbers from 0 - 100% represent growth inhibition, and numbers from -100% - 0 represent cell death. For example, a value of 40 represents 60% growth inhibition. […]
The panel holds about 83,000 compounds, 20% with a hit somewhere; the sample as a whole holds those more often. Active and inactive are the calls of the source. How the source made its calls: active means growth percent below 10; inactive means the rest.
readout: growth

Guide cases for growth, answers given:
{"compound": "CCOC(=O)c1ccoc1", "measured on": "BT-549 breast", "growth": "98.4% (inactive)"}
{"compound": "CC(=O)N1C/C(=C/c2ccc(Cl)cc2)C(=O)/C(=C/c2ccc(Cl)cc2)C1", "measured on": "BT-549 breast", "growth": "-27.2% (active)"}
{"compound": "COc1cc(CNCCCCCCN2C(=O)c3cccc4cccc(c34)C2=O)ccc1O", "measured on": "BT-549 breast", "growth": "83.2% (inactive)"}
{"compound": "Cc1cc(=O)[nH]c(N/N=C/c2ccccc2O)n1", "measured on": "BT-549 breast", "growth": "101% (inactive)"}
{"compound": "COc1cc(NC(=O)CCSc2nc3ccc(Cl)cc3c(=O)n2Cc2ccccc2)cc(OC)c1OC", "measured on": "BT-549 breast", "growth": "73% (inactive)"}

Data request, read-out growth, for C#Cc1ccc(-n2c(/C=C/c3cc(OC)cc(OC)c3)nc3ncccc3c2=O)cc1 65.2% (inactive)

###

# Tested on: RXF 393 renal
# protocol notes: NCI-60 one-dose screen, 48 h
# measurement context: 10 µM
Compounds without any hit were thinned out: in the full panel of roughly 83,000, 20% have a hit. Active and inactive are the calls of the source. How the source made its calls: active means growth percent below 10; inactive means the rest.
Return exactly one item of 1.0 = active, 0.0 = inactive

{"molecule": "CCOC(=O)N1C/C(=C/c2ccc(Cl)cc2)C(=O)/C(=C/c2ccc(Cl)cc2)C1", "measured on": "RXF 393 renal", "assigned label": 0.0}

Which result was noted for this molecule in the test: COc1cc2cc3c(nc2cc1OC)CCN3Cc1ccc(NC(=O)c2ccc(Cl)c(C(F)(F)F)c2)cc1 0.0

Which result was noted for this molecule in the test: CC12O[C@H](C[C@@H](O)[C@H]1O)n1c3ccccc3c3c4c(c5c6ccccc6n2c5c31)C(=O)N(CCCN)C4=O 0.0

Which result was noted for this molecule in the test: COc1ccc(/C=C/C(=O)Nc2ccc(-c3nc4ccc(OC)cc4s3)cc2)cc1 0.0

Which result was noted for this molecule in the test: C(CCCC1=NCCO1)CCCC1=NCCO1 0.0

Which result was noted for this molecule in the test: O=C(CCCCCCC(=O)Nc1cccnc1)NO 0.0

Which result was noted for this molecule in the test: Cc1cc(Cl)nc(N(CCCNc2ccnc3cc(Cl)ccc23)Cc2cccs2)n1 1.0

Which result was noted for this molecule in the test: CNc1ccc(CSc2ccc(C)cc2)cc1 0.0

Which result was noted for this molecule in the test: Fc1ccc2nc(-c3nc(-c4ccccc4)n4ccccc34)[nH]c2c1 1.0

Which result was noted for this molecule in the test: Cc1ccc(C(=O)N2C/C(=C/c3ccc(F)cc3)C(=O)/C(=C/c3ccc(F)cc3)C2)cc1 0.0

Which result was noted for this molecule in the test: CCN1CCN(c2nc3ccccc3c3c(=O)c4ccccc4sc23)CC1 0.0

Which result was noted for this molecule in the test: COc1cc(Cl)cc(-c2nn(-c3cccc(NC(=O)Nc4cc(C(F)(F)F)cc(C(F)(F)F)c4)c3)cc2-c2ccncc2)c1 1.0

Which result was noted for this molecule in the test: Cc1cn(C2CCCCO2)c(=O)nc1NO (stereo not given) 0.0

Which result was noted for this molecule in the test: Nc1ccc2cc(S(=O)(=O)O)cc(O)c2c1N=Nc1ccc(F)cc1 0.0

Which result was noted for this molecule in the test: COc1ccc(Oc2nc(NC3CCCC3)nc(Sc3ccc(OC)cc3)n2)cc1 0.0

Which result was noted for this molecule in the test: CCOC(=O)C(=Cc1ccc(Br)cc1)C(=O)OCC 1.0

###

growth: recorded values
# Tested on: DU-145 prostate
# protocol notes: NCI-60 one-dose screen, 48 h (100 = growth as untreated, 0 = no growth, -100 = all killed)
# measurement context: 10 µM
# Protocol: Cells are grown in 96 well plates and exposed to the test compound for 48 hours. Compounds are tested at a single concentration, which is 10^-5 M for most compounds. The reported endpoint is percent growth (GI% or GIPRCNT), where numbers from 0 - 100% represent growth inhibition, and numbers from -100% - 0 represent cell death. For example, a value of 40 represents 60% growth inhibition. A value of 0 means no net growth occurred over the course of the experiment. […]
This is part of a sample that, as a whole, favours compounds with a hit. Of some 83,000 tested, about 20% had one in any assay.
Could you give me the number in %? Just the number is fine.

Data request, read-out growth, for Cc1cc(N(CCCNc2ccnc3cc(Cl)ccc23)Cc2cccs2)nc(Cl)n1 50.2

Data request, read-out growth, for COc1ccc(-c2nn(-c3cccc(NC(=O)Nc4ccccc4)c3)cc2-c2ccncc2)cc1Cl 50.1

Data request, read-out growth, for COc1cc(Cl)cc(-c2nn(-c3cccc(NC(=O)c4ccc(N5CCOCC5)c(C(F)(F)F)c4)c3)cc2-c2ccncc2)c1 93.3

Data request, read-out growth, for O=C1/C(=C\c2ccc(F)cc2)CN(C(=O)c2ccc([N+](=O)[O-])cc2)C/C1=C\c1ccc(F)cc1 25.5

###

# Test system: NCI-H226 lung
# protocol notes: NCI-60 one-dose screen, 48 h (100 = growth as untreated, 0 = no growth, -100 = all killed)
# measurement context: 10 µM
This is part of a sample that, as a whole, favours compounds with a hit. Of some 83,000 tested, about 20% had one in any assay.
readout: growth (%)
Could you give me the number in %? Just the number is fine.

Guide cases for growth, answers given:
{"compound": "COc1cc(-c2nc(-c3nnc(-c4ccc(F)c(Cl)c4)o3)c3ccccn23)cc(OC)c1OC", "experimental value": 15.3}
{"compound": "O=[N+]([O-])c1ccc(Oc2cccnc2)c([N+](=O)[O-])c1", "experimental value": 89.7}
{"compound": "CC(=O)[C@H]1CC[C@H]2[C@@H]3CCC4=CC(=O)C=C[C@]4(C)[C@H]3CC[C@]12C", "experimental value": 88.4}
{"compound": "COc1ccc(-n2c(SCc3cc(OC)c(OC)c(OC)c3)nc3ccc(C)cc3c2=O)cc1", "experimental value": 73.4}
{"compound": "O=C(Nc1ccc(Cl)cc1)N1NC(c2ccc(Cl)cc2)C=C1c1ccccc1 (stereo not given)", "experimental value": 109}
{"compound": "CCN(CC)CCC(CNc1c(C)cnc2cc(Cl)ccc12)c1ccc(Cl)c(Cl)c1 (stereo not given)", "experimental value": 85.9}
{"compound": "C#Cc1ccc(-n2c(/C=C/c3cc(OC)cc(OC)c3)nc3ncccc3c2=O)cc1", "experimental value": 65.8}
{"compound": "COC(=O)c1c(-c2ccccc2)csc1NC(=O)c1c(-c2ccccc2)noc1C", "experimental value": 49.6}

Moving on to the next compound.
Data request, read-out growth, for CCC(=O)N1C/C(=C/c2ccc(Br)cc2)C(=O)/C(=C/c2ccc(Br)cc2)C1 -62.8

###

growth: recorded values
# System: ACHN renal
# protocol notes: NCI-60 one-dose screen, 48 h (100 = growth as untreated, 0 = no growth, -100 = all killed)
# measurement context: 10 µM
This is part of a sample that, as a whole, favours compounds with a hit. Of some 83,000 tested, about 20% had one in any assay.
Could you give me the number in %? Just the number is fine.

{"molecule": "O=C(N/N=C/c1ccccc1)C(Oc1ccccc1)c1ccccc1 (stereo not given)", "measured on": "ACHN renal", "output unit": "%", "growth": 93.1}
{"molecule": "Cc1cc(Cl)nc(N(CCCNc2ccnc3cc(Cl)ccc23)Cc2cccs2)n1", "measured on": "ACHN renal", "output unit": "%", "growth": 25.8}
{"molecule": "CN(Cc1ccccc1)Cc1ccc([N+](=O)[O-])cc1I", "measured on": "ACHN renal", "output unit": "%", "growth": 101}

Data request, read-out growth, for O=C(C[P+](c1ccccc1)(c1ccccc1)c1ccccc1)C[P+](c1ccccc1)(c1ccccc1)c1ccccc1 -99.4

Data request, read-out growth, for COc1ccc(/C=C2/CN(C(=O)c3ccc(C)cc3)C/C(=C\c3ccc(OC)cc3)C2=O)cc1 92

###

# Test system: SNB-75 CNS
# protocol notes: NCI-60 one-dose screen, 48 h
# measurement context: 10 µM
Compounds without any hit were thinned out: in the full panel of roughly 83,000, 20% have a hit. Activity calls are given as the source filed them. The calls were made as follows: active = growth percent below 10; inactive = the rest.
Return exactly one item of active, inactive

{"compound": "CCCCCCNC(=O)Oc1ccc(/C(=C(/CC)Cc2ccccc2)c2ccc(OCCN3CCCCC3)cc2)cc1", "assigned label": "inactive"}

API: the following record is the query input.
Which result was noted for this compound in the test: COc1ccc2c(c1)N(CCO)C1=C(C(=O)OC1)C2c1cc(OC)c(OC)c(OC)c1 (centres undefined) inactive
